Target: full-length human PRMT1 isoform 1 (GST-tagged) (Homo sapiens, UniProt Q99873)
Construct: GST-tagged PRMT1 was eluted with 50 mM Tris, 2 mM glutathione, pH 7.8, dialysed in buffer A and concentrated
Sequence (Q99873 with tags, fused parts or gaps): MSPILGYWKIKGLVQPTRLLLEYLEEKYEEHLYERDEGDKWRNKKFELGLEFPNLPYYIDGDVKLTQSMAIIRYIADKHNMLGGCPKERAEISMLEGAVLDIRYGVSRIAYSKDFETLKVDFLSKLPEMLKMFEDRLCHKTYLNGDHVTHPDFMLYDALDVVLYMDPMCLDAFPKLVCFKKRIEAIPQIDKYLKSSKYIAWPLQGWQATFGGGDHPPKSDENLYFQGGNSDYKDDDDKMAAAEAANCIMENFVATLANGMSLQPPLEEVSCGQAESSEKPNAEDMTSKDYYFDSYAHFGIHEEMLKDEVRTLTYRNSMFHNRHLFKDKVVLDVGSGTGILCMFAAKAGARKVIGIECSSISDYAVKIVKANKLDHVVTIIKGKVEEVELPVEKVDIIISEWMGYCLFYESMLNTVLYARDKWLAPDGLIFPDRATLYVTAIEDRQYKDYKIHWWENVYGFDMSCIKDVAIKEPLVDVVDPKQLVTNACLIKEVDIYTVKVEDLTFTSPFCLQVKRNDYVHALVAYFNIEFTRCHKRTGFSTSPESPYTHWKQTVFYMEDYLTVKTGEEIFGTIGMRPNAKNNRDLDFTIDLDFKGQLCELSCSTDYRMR
Test: PRMT1 biochemical assay (3H-SAM Flashplate, histone H4 36-50 peptide)
Details: 0.5 nM PRMT1, 30 min preincubation, 20 nM peptide
Where a name gives a salt, the structure may show the parent alone.
// classify: if (IC50 < 60 nM) Yes else No

> print(dat)
                                    molecule  classification
 1  CCC1CC(c2n[nH]cc2CN(C)CCNC)CC(C(=O)NCCOC)C1(C)C (centres unmarked) [compound 21, dihydrochloride]              No
 2  CNCCN(C)Cc1c[nH]nc1C1C[C@H](C(=O)NCCOC)C(C)(C)[C@H](C(=O)NCCOC)C1 (some centres unmarked)              No
 3  CNCCN(C)Cc1cn(C)nc1C1CCC(C)(C)[C@@H](C(=O)NCC(C)C)C1 (some centres unmarked)              No
 4  CNCCN(C)Cc1c[nH]nc1[C@H]1CC[C@H](COCC(F)(F)F)CC1             Yes
 5  CCOC[C@@H]1CC(c2n[nH]cc2CN(C)CCNC)CCC1(C)C (some centres unmarked)             Yes
 6  CN(CCN)Cc1nn(C)cc1[C@H]1CC[C@@]2(CC1)CC(C)(C)CO2             Yes
 7  CN(C)CCN(C)Cc1c[nH]nc1[C@H]1CC[C@]2(CC1)CC(C)(C)CO2             Yes
 8  CCC1(CC)C[C@]2(CC[C@H](c3n[nH]cc3CN(C)CCNC)CC2)OC1=O             Yes
 9  CNCCN(C)Cc1nncn1[C@H]1CC[C@]2(CC1)CC(C)(C)CO2              No
10  CNCCN(C)Cc1c[nH]nc1[C@H]1CC[C@@]2(CCN(CCC(C)C)C2=O)CC1             Yes
11  CN(CCN)Cc1c[nH]nc1[C@H]1CC[C@@]2(CC1)CC(C)(C)CO2             Yes
12  CNCCN(C)Cc1nocc1[C@H]1CC[C@]2(CC1)CC(C)(C)CO2              No
13  CNCCN(C)Cc1c[nH]nc1[C@H]1CC[C@]2(CCN(CCC(C)C)C2=O)CC1             Yes
14  CNCCNCc1c[nH]nc1[C@H]1CC[C@]2(CC1)CC(C)(C)CO2              No
15  CNCCN(C)Cc1c(C)noc1[C@H]1CC[C@@]2(CC1)CC(C)(C)CO2              No
16  CNCCN(C)Cc1nn(C)nc1[C@H]1CC[C@@]2(CC1)CC(C)(C)CO2             Yes
17  CNCCN(C)Cc1c[nH]nc1[C@H]1CC[C@@]2(CCCCO2)CC1             Yes

====

The entries below are paired with their reported IC50.
Molecular target: full-length human PRMT8 isoform 1 (Homo sapiens, UniProt Q9NR22)
Sequence (Q9NR22 whole entry, canonical isoform): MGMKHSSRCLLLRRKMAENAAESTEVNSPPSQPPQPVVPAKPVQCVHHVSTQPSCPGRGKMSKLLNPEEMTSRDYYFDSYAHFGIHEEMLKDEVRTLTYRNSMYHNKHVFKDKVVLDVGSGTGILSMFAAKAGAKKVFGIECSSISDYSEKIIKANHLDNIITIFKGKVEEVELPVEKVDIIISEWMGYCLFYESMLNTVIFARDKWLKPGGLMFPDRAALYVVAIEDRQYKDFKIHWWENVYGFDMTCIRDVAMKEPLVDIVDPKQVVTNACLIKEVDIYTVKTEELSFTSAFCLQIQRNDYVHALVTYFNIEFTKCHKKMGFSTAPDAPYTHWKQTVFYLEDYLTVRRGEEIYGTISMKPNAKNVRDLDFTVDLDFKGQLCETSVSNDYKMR
Assay: PRMT8 biochemical assay (3H-SAM Flashplate, histone H4 31-45 peptide)
Details: 1.5 nM PRMT8, 30 min preincubation, 150 nM peptide
Where a name gives a salt, the structure may show the parent alone.
measurement_kind: IC50 (nM)

> print(dat)
                                   compound  bound.operator  test.value
1  CNCCN(C)Cc1c[nH]nc1C1CCC(C)(C)[C@H](CO)C1 (stereo partly shown)               =         291
2  CCC1(CC)C[C@]2(CC[C@@H](c3n[nH]cc3CN(C)CCNC)CC2)OC1=O               =         146
3  CNCCN(C)Cc1c[nH]nc1C1CCC(OCCCOC)C2(CCCC2)C1 (mixture of isomers) [compound 19, dihydrochloride]               =        30.1
4  CNCCN(C)Cc1c[nH]nc1C1C[C@@H](C(=O)N(C)CC(C)C)C(C)(C)[C@H](C(=O)N(C)CC(C)C)C1 (stereo partly shown)               >       10000

====

This listing pairs compounds with measured IC50.
Target: full-length human PRMT1 isoform 1 (GST-tagged) (Homo sapiens, UniProt Q99873)
Construct: GST-tagged PRMT1 was eluted with 50 mM Tris, 2 mM glutathione, pH 7.8, dialysed in buffer A and concentrated
Test: PRMT1 biochemical assay (3H-SAM Flashplate, histone H4 36-50 peptide)
Conditions: 0.5 nM PRMT1, 30 min preincubation, 20 nM peptide
measurement_kind: IC50 (nM)

> print(dat)
                                    compound  bound.operator  test.value
 1  CNCCN(C)Cc1c[nH]nc1C1CCC2(CCC(OC)CC2)CC1 (stereo not drawn) [compound 9]               =         8.7
 2  CNCCN(C)Cc1c[nH]nc1C1CCC(C)(C)[C@H](CO)C1 (stereo partly drawn) [compound 32]               =        22.1
 3  CNCCN(C)Cc1c[nH]nc1C1CCC(COCC(C)C)(COCC(C)C)CC1 [compound 6]               =        16.7
 4  CNCCN(C)Cc1c(C)noc1[C@H]1CC[C@]2(CC1)CC(C)(C)CO2 [compound 114]               =         121
 5  CNCCN(C)Cc1nccn1[C@H]1CC[C@]2(CC1)CC(C)(C)CO2 [compound 91]               =        1020
 6  CNCCN(C)Cc1c[nH]nc1C1CC(COCC2CC2)CC(COCC2CC2)C1 (stereo not drawn) [compound 2]               =        69.2
 7  CNCCN(C)Cc1c[nH]nc1C1=CCC(CF)(CF)CC1 [compound 15]               =         5.6
 8  CN(CCN)Cc1c[nH]nc1[C@H]1CC[C@]2(CC1)CC(C)(C)CO2 [compound 106]               =        45.3
 9  CNCCN(C)Cc1sc(C)nc1[C@H]1CC[C@@]2(CC1)CC(C)(C)CO2 [compound 78]               =          23
10  CNCCN(C)Cc1c[nH]nc1C1CCC(C)(C)[C@H](COCCOC)C1 (stereo partly drawn) [compound 35]               =        51.9
11  CCOCC1(COCC)CCC(c2n[nH]cc2CN(C)CCN)CC1 [compound 123]               =        4.28
12  CNCCN(C)Cc1n[nH]cc1[C@H]1CC[C@@]2(CC1)CC(C)(C)CO2 [compound 115]               =        11.5
13  CCOCCOCC1(COCCOCC)CCC(c2n[nH]cc2CN(C)CCNC)CC1 [compound 39]               =        31.2
14  CN(CCN)Cc1cn(C)nc1[C@H]1CC[C@@]2(CC1)CC(C)(C)CO2 [compound 55]               =        7.28
15  CCN(C)C(=O)C1CC(c2n[nH]cc2CN(C)CCNC)CC(C(=O)NCCC(C)C)C1(C)C (stereo not drawn) [compound 14]               >       10000
16  CNCCN(C)Cc1c([C@H]2CC[C@@]3(CC2)CC(C)(C)CO3)nnn1C [compound 53]               =        5850
17  Cc1[nH]nc([C@H]2CC[C@]3(CC2)CC(C)(C)CO3)c1CN(C)CCN [compound 52]               =          16
18  CNCCN(C)Cc1c[nH]nc1C1CCC(COC)(COCC2CCOCC2)CC1 (stereo not drawn) [compound 45]               =          33
